# Test system: Lolium rigidum
# PROCEDURE DETAILS: Pre-emergence herbicidal activity against Lolium rigidum seeds assessed as concentration required to suppress root growth at 25 degC after 72 hr by laboratory-based agar medium bioassay
# Assay type: functional
Let's look at some compounds and their measured Activity.
A number alone suffices; assume mol/L.

COMPOUND	UNITS TEXT	Activity
CCCCCC(=O)O [HEXANOATE]	mol/L	0.0001
CC(C)[C@]12CC[C@@](C)(O1)[C@H](OC(=O)c1ccccc1)C2 (racemic) [2-exo-benzoxy-1,4-cineole]	mol/L	0.0001
CC(=O)O[C@@H]1C[C@@]2(C(C)C)CC[C@@]1(C)O2 (racemic) [2-exo-acetoxy-1,4-cineole]	mol/L	0.01
CC1(C)O[C@]2(C)CC[C@@H]1[C@@H](O)C2 (racemic) [3-exo-hydroxy-1,8-cineole]	mol/L	0.1
CC(C)[C@]12CC[C@@](C)(O1)[C@H](O)C2 (racemic) [2-Exo-hydroxy-1,4-cineole]	mol/L	0.01

Now, please, on to the next compound.
Exam item: Report Activity for CC1(C)O[C@]2(C)CC[C@@H]1[C@@H](OC(=O)c1ccccc1)C2 (racemic) [3-exo-benzoxy-1,8-cineole] please.
Marked response: 0.01

FYI, the data here is from ChEMBL document CHEMBL3045579.
